Kindly supply the reported SPOT peptide array binding signal intensity values for the records listed here.
Test target: ScPex13
Test details: SPOT peptide array binding signal intensity (averaged, normalized) (arbitrary units (background-subtracted, floor 0; scale differs between SH3 domains)); higher = stronger binding of the SH3 domain to the peptide

Recorded SPOT peptide array binding signal intensity of LTRRFPFLFPFDTRM , please.
≤ 0

Ok, now APKHAPPPVPNETDN
≤ 0

Ok, now GRLRPKRIAPWHLIQ
10

Ok, now RKLRTVPGVPLIHLT
59.5

Ok, now RKQRSIPLSPIVPES
4.5

Ok, now SSTPTTPERPKRKSG
78.2

Ok, now SSSSTPPTLPPRRIE
2100

Ok, now MSPLGAPPPPPHKDH
≤ 0

Ok, now NLDRSKISLPDFDDE
≤ 0

Ok, now RKNRAPPQRPRFNRD
88.8

Ok, now NTMKKRPAPPSLPSL
310

Ok, now GATNNAPTLPKRKNP
182

Ok, now ALKQKKIPPPFKPHL
≤ 0

Ok, now FTLPPPPPPPGLDEL
1

Ok, now RPPRPPPKPLHLRTE
1500

Ok, now IHTRRPSSTSQYLIR
10.8

Origin of the recorded values: the supplement of paper PMC4466140
